The entries below come with measured AC50 values attached.
# target: Progesterone receptor (Homo sapiens, UniProt P06401)
# Sequence (P06401 whole entry): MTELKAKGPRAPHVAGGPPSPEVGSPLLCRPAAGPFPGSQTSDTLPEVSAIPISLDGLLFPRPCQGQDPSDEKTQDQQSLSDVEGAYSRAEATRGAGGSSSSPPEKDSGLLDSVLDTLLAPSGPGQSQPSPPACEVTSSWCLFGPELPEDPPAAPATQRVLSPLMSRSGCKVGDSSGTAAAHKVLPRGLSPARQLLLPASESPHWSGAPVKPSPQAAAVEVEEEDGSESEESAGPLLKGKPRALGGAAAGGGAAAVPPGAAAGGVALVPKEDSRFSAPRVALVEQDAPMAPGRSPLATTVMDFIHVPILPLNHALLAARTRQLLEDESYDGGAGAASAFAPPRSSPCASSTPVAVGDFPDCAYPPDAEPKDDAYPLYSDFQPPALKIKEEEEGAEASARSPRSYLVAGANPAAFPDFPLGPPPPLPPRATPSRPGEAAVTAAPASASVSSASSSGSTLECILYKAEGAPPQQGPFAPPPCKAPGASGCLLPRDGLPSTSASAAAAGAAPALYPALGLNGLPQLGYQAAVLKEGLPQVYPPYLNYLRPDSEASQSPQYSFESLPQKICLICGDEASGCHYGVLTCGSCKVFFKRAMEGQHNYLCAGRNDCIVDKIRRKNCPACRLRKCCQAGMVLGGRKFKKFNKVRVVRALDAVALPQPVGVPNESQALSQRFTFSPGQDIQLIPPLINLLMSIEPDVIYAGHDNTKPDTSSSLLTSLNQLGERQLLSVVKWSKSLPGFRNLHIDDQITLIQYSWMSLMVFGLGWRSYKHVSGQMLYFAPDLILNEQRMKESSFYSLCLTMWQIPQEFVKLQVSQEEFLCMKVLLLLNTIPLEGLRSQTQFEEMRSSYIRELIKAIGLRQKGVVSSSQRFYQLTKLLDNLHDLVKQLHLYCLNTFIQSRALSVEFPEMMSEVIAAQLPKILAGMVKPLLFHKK
# Assay type: functional

Below: 6 compounds and their reported AC50.
compound | AC50
COc1nc(C)nc(Cl)c1N=C1NCCN1 [MOXONIDINE] | > 30 µM
CC(=O)OCC1=C(C(=O)O)N2C(=O)[C@@H](NC(=O)Cc3cccs3)[C@H]2SC1 [CEPHALOTHIN] | > 30 µM
CCN(CC)Cc1nccn1-c1ccc([N+](=O)[O-])cc1C(=O)c1ccccc1Cl [NIZOFENONE] | > 30 µM
COC(=O)CCc1ccc(OCC(O)CNC(C)C)cc1 (configuration not stated) [ESMOLOL] | > 30 µM
CC(C)C[C@H](NC(=O)[C@H](Cc1ccccc1)NC(=O)c1cnccn1)B(O)O [BORTEZOMIB] | > 30 µM
CCCCOC(=O)C(=O)Nc1cccc(-c2nnn[nH]2)c1 [TAZANOLAST] | > 30 µM

Let us move to another entry and its AC50.
input: Name the recorded AC50 for CN(C)CCc1c[nH]c2ccc(CS(=O)(=O)N3CCCC3)cc12 [ALMOTRIPTAN] .
output: > 30 µM

====

The entries below come with measured AC50 values attached.
# target: UniProtKB P41595
# Sequence (P41595 whole entry): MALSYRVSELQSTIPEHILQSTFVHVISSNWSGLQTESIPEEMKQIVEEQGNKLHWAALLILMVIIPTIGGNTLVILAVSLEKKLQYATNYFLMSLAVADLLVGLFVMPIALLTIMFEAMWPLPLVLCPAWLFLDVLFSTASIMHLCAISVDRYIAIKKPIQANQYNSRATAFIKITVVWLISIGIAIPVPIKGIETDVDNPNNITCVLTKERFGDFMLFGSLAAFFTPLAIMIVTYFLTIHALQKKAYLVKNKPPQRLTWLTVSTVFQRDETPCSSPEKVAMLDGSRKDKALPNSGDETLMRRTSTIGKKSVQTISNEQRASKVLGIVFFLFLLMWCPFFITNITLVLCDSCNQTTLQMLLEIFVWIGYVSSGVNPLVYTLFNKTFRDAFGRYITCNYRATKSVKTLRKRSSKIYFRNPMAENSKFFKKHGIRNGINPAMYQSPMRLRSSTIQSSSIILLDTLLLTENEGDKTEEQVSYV
# Assay type: functional, cell-based

compound | target | value
Clc1ccc(COC(Cn2ccnc2)c2ccc(Cl)cc2Cl)c(Cl)c1 (stereo not given) | UniProtKB P41595 | > 10 µM
Nc1ccc(S(=O)(=O)Nc2ncccn2)cc1 | UniProtKB P41595 | > 10 µM
CC(=O)SCC(Cc1ccccc1)C(=O)NCC(=O)OCc1ccccc1 (stereo not given) | UniProtKB P41595 | > 30 µM
CCOC(=O)[C@H](CCc1ccccc1)N[C@@H](C)C(=O)N1Cc2ccccc2C[C@H]1C(=O)O | UniProtKB P41595 | > 10 µM
CNC1(C)C2CCC(C2)C1(C)C (stereo not given) | UniProtKB P41595 | > 10 µM
COc1ccc(-c2cc(=S)ss2)cc1 | UniProtKB P41595 | > 30 µM

input: Name the recorded AC50 for `CN1CCC(=C2c3ccccc3CC(=O)c3sccc32)CC1` .
output: > 10 µM

input: Proceed to `C=C(c1ccccc1OCc1cccc(Cl)c1)n1ccnc1`
output: > 10 µM

input: Proceed to Cc1ccc(S(=O)(=O)NC(=O)N[C@H]2[C@H]3CC[C@@](C)([C@H]2O)C3(C)C)cc1 [GLIBORNURIDE]
output: > 30 µM

input: Proceed to O=C(c1ccccc1)c1ccc2n1CCC2C(=O)O (stereo not given)
output: > 30 µM

====

# target: Progesterone receptor (Homo sapiens)
# Type: functional
Where a SMILES comes first, the peptide text is derived from it.
The entries below come with measured AC50 values attached.

Below: 3 compounds and their reported AC50.
compound | target | AC50
C[C@H](N)C(=O)N[C@@H](CCC(N)=O)C(=O)O [ALANYL GLUTAMINE] (H-Ala-Gln-OH) | Progesterone receptor (Homo sapiens) | > 30 µM
COc1cccc2c1C(=O)c1c(O)c3c(c(O)c1C2=O)C[C@@](O)(C(=O)CO)C[C@@H]3O[C@H]1C[C@H](N)[C@H](O)[C@H](C)O1 | Progesterone receptor (Homo sapiens) | > 30 µM
COc1nc(C)nc(Cl)c1N=C1NCCN1 | Progesterone receptor (Homo sapiens) | > 30 µM

input: Name the recorded AC50 for CC(C(=O)O)c1ccc(C(=O)c2ccccc2)s1 (centres undefined) .
output: > 10 µM
